# system name: human C5 (human, UniProt P01031 19-1676)
# assay details: cell-based or functional assay
Exercise: for every item that follows, state its recorded IC50, inhibition of CDC of Daudi cells, 1.66% human serum.
Please respond with the number in nM and leave the unit unwritten.

Sample H4H12163P (antibody, human IgG4, V domains shown, H4H: human IgG4 Fc with S108P hinge mutation) VH: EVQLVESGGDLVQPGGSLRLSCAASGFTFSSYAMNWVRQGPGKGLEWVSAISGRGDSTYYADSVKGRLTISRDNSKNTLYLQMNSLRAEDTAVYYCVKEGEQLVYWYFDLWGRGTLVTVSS VL: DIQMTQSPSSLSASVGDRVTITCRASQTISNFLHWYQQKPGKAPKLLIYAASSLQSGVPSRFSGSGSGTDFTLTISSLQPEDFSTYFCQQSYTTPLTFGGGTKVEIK — what was its IC50, inhibition of CDC of Daudi cells, 1.66% human serum?
3.4

Fill in the blank: the reported IC50, inhibition of CDC of Daudi cells, 1.66% human serum of H4H12175P (antibody, human IgG4, V domains shown, H4H: human IgG4 Fc with S108P hinge mutation) VH: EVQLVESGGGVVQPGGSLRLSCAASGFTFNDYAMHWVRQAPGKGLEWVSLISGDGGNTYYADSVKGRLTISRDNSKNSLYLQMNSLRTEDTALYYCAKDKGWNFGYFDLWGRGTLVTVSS VL: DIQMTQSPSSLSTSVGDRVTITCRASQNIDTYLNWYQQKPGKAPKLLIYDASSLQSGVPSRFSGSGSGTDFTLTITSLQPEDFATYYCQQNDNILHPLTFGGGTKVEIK is ____.
2.2

Given H4H12169P (antibody, human IgG4, V domains shown, H4H: human IgG4 Fc with S108P hinge mutation) VH: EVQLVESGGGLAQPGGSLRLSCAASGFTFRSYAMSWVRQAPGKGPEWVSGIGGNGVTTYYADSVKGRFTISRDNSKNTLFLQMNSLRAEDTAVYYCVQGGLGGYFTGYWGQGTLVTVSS VL: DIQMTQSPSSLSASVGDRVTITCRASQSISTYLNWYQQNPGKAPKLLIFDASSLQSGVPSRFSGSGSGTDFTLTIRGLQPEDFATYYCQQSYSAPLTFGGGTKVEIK , state its recorded IC50, inhibition of CDC of Daudi cells, 1.66% human serum.
1.7

Reference for the values: patent US20170355757A1
